Entries and their koff values follow.
system tested: T1, human IL-11 (AAH12506.1, Pro22-Leu199) (human, UniProt P20809 22-199)
T1 construct: The range Pro22-Leu199 counts on AAH12506.1; The Octet runs say only 'human IL-11'; also called hIL-11
T1 chain: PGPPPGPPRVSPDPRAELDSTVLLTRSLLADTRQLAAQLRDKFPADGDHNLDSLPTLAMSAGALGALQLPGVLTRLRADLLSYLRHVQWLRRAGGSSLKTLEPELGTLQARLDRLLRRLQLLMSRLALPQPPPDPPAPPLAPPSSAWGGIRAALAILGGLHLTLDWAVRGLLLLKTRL
assay method text: BLI (Octet), antibody captured, human IL-11 in solution
API: value field is a number in s⁻¹; no unit string.

Use these answered entries as a reference point.
binder: hz18A10-VHm1 + hz18A10-VLm14 (antibody, V domains shown, Constant regions not restated for this antibody) VH: EVQLVQSGAEVKKPGASVKVSCKASGYTFTTYNMDWVRQAPGQGLEWMGTIYPGNGDTSYNQKFKGRVTMTRDTSTSTVYMELSSLRSEDTAVYYCARGDLHFLDYWGQGTLVTVSS VL: DIQMTQSPSSLSASVGDRVTITCKASQSVSNDVAWYQQKPGKAPKLLIYRASRRYTGVPSRFSGSGSGTDFTFTISSLQPEDIATYYCQHDYSSPYTFGQGTKLEIK
koff, s⁻¹: 0.000341

binder: hz18A10-VHm4 + hz18A10-VLm9 (antibody, V domains shown, Constant regions not restated for this antibody) VH: EVQLVQSGAEVKKPGASVKVSCKASGYTFTTYNIDWVRQAPGQGLEWMGTIYPGNGDTSYNQKFKGRVTMTRDTSTSTVYMELSSLRSEDTAVYYCARGDLYALDYWGQGTLVTVSS VL: DIQMTQSPSSLSASVGDRVTITCKASQSVYSDVAWYQQKPGKAPKLLIYSASNRYTGVPSRFSGSGSGTDFTFTISSLQPEDIATYYCQHDYSSPYTFGQGTKLEIK
koff, s⁻¹: 0.000496

binder: hz18A10-VHm13 + hz18A10-VLm19 (antibody, V domains shown, Constant regions not restated for this antibody) VH: EVQLVQSGAEVKKPGASVKVSCKASGYTFTHYEMDWVRQAPGQGLEWMGTIYPGNGDTSYNQKFKGRVTMTRDTSTSTVYMELSSLRSEDTAVYYCARGDLYALDYWGQGTLVTVSS VL: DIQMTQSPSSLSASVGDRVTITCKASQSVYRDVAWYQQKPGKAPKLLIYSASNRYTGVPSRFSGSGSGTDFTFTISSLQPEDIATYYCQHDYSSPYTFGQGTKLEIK
koff, s⁻¹: 0.000148

# input What value of koff has been recorded for this entry: hz18A10-VH + hz18A10-VLm13 (antibody, V domains shown, Constant regions not restated for this antibody) VH: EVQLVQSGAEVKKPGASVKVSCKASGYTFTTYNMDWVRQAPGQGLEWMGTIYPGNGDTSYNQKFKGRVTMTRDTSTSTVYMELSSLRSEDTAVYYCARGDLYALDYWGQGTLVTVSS VL: DIQMTQSPSSLSASVGDRVTITCKASQSVSNDVAWYQQKPGKAPKLLIYSASRRYTGVPSRFSGSGSGTDFTFTISSLQPEDIATYYCQHDYSSPYTFGQGTKLEIK
# output 0.00268

# input Could you share which koff value was measured for hz18A10-VHm2 + hz18A10-VLm11 (antibody, V domains shown, Constant regions not restated for this antibody) VH: EVQLVQSGAEVKKPGASVKVSCKASGYTFTTYNMDWVRQAPGQGLEWMGTIYPGNGDTSYNQKFKGRVTMTRDTSTSTVYMELSSLRSEDTAVYYCARGDLHYLDYWGQGTLVTVSS VL: DIQMTQSPSSLSASVGDRVTITCKASQSVSNDVAWYQQKPGKAPKLLIYRASNRYTGVPSRFSGSGSGTDFTFTISSLQPEDIATYYCQHDYSSPYTFGQGTKLEIK ?
# output 0.000317
